B1: glmS ribozyme (parent)
chain: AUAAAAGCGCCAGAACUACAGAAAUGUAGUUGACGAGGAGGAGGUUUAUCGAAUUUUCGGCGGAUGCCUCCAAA

Variants of: B1
Experiment: kcat; higher = faster cleavage; RNA array
Conditions: with glucosamine-6-phosphate
This sample holds only a part of the variants without activity.
Everything with kcat lower than 0.0008 s⁻¹ is 0.0; everything else, including exactly 0.0008 s⁻¹, is 1.0.

>>> df
   mutation_annotation  class_label
0            U54A U55A          1.0
1            A14U A33U          0.0
2            A12C U69C          1.0
3            G13C U47G          0.0
4            U47C G63A          0.0
